B1: LINE1-full (parent)
chain: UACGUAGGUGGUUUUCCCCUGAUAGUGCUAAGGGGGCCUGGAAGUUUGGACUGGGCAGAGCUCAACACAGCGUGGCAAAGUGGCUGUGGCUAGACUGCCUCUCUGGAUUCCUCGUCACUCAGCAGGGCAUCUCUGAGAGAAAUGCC

variants of: B1; assay: self-cleavage, relative activity (ratio to wild type); higher = more cleavage; in vitro, sequencing; the parent is a self-cleaving ribozyme
# self-cleavage listing for each entry below
Give the figure only, with no unit attached.

>>> test_value("A79G U143A")
1.52
>>> test_value("G60A A107G")
0.03
>>> test_value("A77C U102C")
0

Exercise: What does the record list as self-cleavage for C38U U119A ?
Key: 1.24

Exercise: What does the record list as self-cleavage for G40U G139A ?
Key: 1.17

Exercise: What does the record list as self-cleavage for U52G U85C ?
Key: 0.15

Exercise: What does the record list as self-cleavage for C19U U39C ?
Key: 0.65

Exercise: What does the record list as self-cleavage for A30G A107U ?
Key: 1.71

Exercise: What does the record list as self-cleavage for U73G U109C ?
Key: 1.07

Exercise: What does the record list as self-cleavage for A43U U109A ?
Key: 1.38

Exercise: What does the record list as self-cleavage for U9G U47A ?
Key: 0.99

Exercise: What does the record list as self-cleavage for U91A A141G ?
Key: 0.51

Exercise: What does the record list as self-cleavage for G34A U73A ?
Key: 0.8

Exercise: What does the record list as self-cleavage for U23C U39A ?
Key: 1.2

Exercise: What does the record list as self-cleavage for U29C A129G ?
Key: 2.12

Exercise: What does the record list as self-cleavage for G33A U108C ?
Key: 1.47

Exercise: What does the record list as self-cleavage for C68U A142G ?
Key: 0.14

Exercise: What does the record list as self-cleavage for G10C U73C ?
Key: 1.64

Exercise: What does the record list as self-cleavage for C71U U85A ?
Key: 0.03

Exercise: What does the record list as self-cleavage for U5A U39A ?
Key: 0.8

Exercise: What does the record list as self-cleavage for G21A A67C ?
Key: 0.02

Exercise: What does the record list as self-cleavage for G54U U143C ?
Key: 1.07

Reference source: the RNAGym collection of RNA variant scans (doi:10.7554/elife.90254)
